target.of.assay: HLA-A*02:19
method.notes: IEDB peptide-MHC binding, purified MHC/competitive/fluorescence; filed as Kd, often an IC50 or EC50 that approximates it; bounds were set here for any values at or beyond the usual limits of such assays
experimental.parameters: source organism: Vibrio vulnificus YJ016
pKd: −log10 of the molar value.
reported.property: pKd

Fill in the blank: the reported pKd of `DFISMYFPW` is ____.
≤ 4.70

----------
target.of.assay: HLA-B*57:01
method.notes: IEDB peptide-MHC binding, purified MHC/competitive/radioactivity; filed as Kd, often an IC50 or EC50 that approximates it; bounds were set here for any values at or beyond the usual limits of such assays
experimental.parameters: source organism: Dengue virus 1 Brazil/97-11/1997
reported.property: Kd (nM)
Answers are plain numbers, in nM.

Would you kindly share the measured Kd for `KTSAGVNMCT` ?
1130

----------
target.of.assay: HLA-A*24:02
method.notes: IEDB peptide-MHC binding, purified MHC/competitive/radioactivity; filed as Kd, often an IC50 or EC50 that approximates it; bounds were set here for any values at or beyond the usual limits of such assays
experimental.parameters: source organism: Dengue virus 3 Martinique/1243/1999
reported.property: pKd
Give bare numbers, as −log10 of the molar value.

Param readout= pKd; system= HLA-A*24:02; entry= `AYAQMWSLM` ; returns value.
7.92

----------
target.of.assay: HLA-B*58:01
method.notes: IEDB peptide-MHC binding, purified MHC/direct/fluorescence; filed as Kd, often an IC50 or EC50 that approximates it; bounds were set here for any values at or beyond the usual limits of such assays
experimental.parameters: source organism: Influenza A virus (A/duck/Korea/S10/03(H3N2))
reported.property: Kd (µM)
Numbers only, in µM.

Looking for the measured Kd of `PAHKSQLVW` , can you help?
2.21

----------
target.of.assay: HLA-A*68:02
method.notes: IEDB peptide-MHC binding, purified MHC/competitive/fluorescence; filed as Kd, often an IC50 or EC50 that approximates it; bounds were set here for any values at or beyond the usual limits of such assays
experimental.parameters: source organism: Vaccinia virus Copenhagen
reported.property: pKd
Answers are plain numbers, as −log10 of the molar value.

Recorded pKd of `LEYGANYFL` , please.
5.65

----------
So I've got a bunch of sequences here, and I need their Kd values.
target.of.assay: HLA-A*01:01
method.notes: IEDB peptide-MHC binding, purified MHC/direct/fluorescence; filed as Kd, often an IC50 or EC50 that approximates it; bounds were set here for any values at or beyond the usual limits of such assays
experimental.parameters: source organism: Giardia lamblia ATCC 50803

# residues, Kd
rows = [
    ("VSSKKCTAL", "≥ 20 µM"),
]

Please turn your attention to the following entry.
Which value of Kd has been reported for `PPQATAKYL` in the records?
≥ 20 µM

----------
target.of.assay: HLA-A*24:03
method.notes: IEDB peptide-MHC binding, purified MHC/direct/fluorescence; filed as Kd, often an IC50 or EC50 that approximates it; bounds were set here for any values at or beyond the usual limits of such assays
experimental.parameters: source organism: Rickettsia prowazekii
reported.property: Kd (µM)
Give bare numbers, in µM.

Query: Kd; subject: `NLKLYGAEF`
11.6

----------
target.of.assay: HLA-C*06:02
method.notes: IEDB peptide-MHC binding, purified MHC/competitive/fluorescence; filed as Kd, often an IC50 or EC50 that approximates it; bounds were set here for any values at or beyond the usual limits of such assays
experimental.parameters: source organism: Coxiella burnetii RSA 493
reported.property: Kd (nM)
Numbers only, in nM.

Please look up its Kd: `YRATYSMAL`
6.1

----------
target.of.assay: HLA-A*68:02
method.notes: IEDB peptide-MHC binding, purified MHC/competitive/radioactivity; filed as Kd, often an IC50 or EC50 that approximates it; bounds were set here for any values at or beyond the usual limits of such assays
experimental.parameters: source organism: Vaccinia virus WR
reported.property: Kd

// solved cases for Kd follow
# residues, Kd
rows = [
    ("LLFASMGFK", "≥ 36.3 µM"),
    ("RPDTRHLRVL", "≥ 69.8 µM"),
    ("VTNLISETLK", "≥ 34.9 µM"),
]

Consider the sequence shown here: `ATLMKTSCSK` What is its recorded Kd?
≥ 69.8 µM

----------
target.of.assay: HLA-B*58:01
method.notes: IEDB peptide-MHC binding, purified MHC/direct/fluorescence; filed as Kd, often an IC50 or EC50 that approximates it; bounds were set here for any values at or beyond the usual limits of such assays
experimental.parameters: source organism: Giardia lamblia ATCC 50803
pKd: −log10 of the molar value.
reported.property: pKd

For orientation, consider the following solved cases.
# residues, pKd
data = [
    ("VSSKKCTAL", "≤ 4.70"),
    ("PPQATAKYL", "≤ 4.70"),
]

# evaluate next
Entry `RAIREYFQF` has what pKd?
8.30

----------
target.of.assay: HLA-A*02:01
method.notes: IEDB peptide-MHC binding, purified MHC/competitive/radioactivity; filed as Kd, often an IC50 or EC50 that approximates it; bounds were set here for any values at or beyond the usual limits of such assays
experimental.parameters: source organism: Dengue virus 1 Singapore/S275/1990
reported.property: Kd (nM)
One number for each entry, in nM.

# residues, Kd [nM]
data = [
    ("FLAHAIGTSI", 8.19),
]

Let's switch to this sequence now.
Which Kd reading was recorded for the sequence `TLAVFLLLI` ?
2590

----------
target.of.assay: HLA-B*46:01
method.notes: IEDB peptide-MHC binding, purified MHC/direct/fluorescence; filed as Kd, often an IC50 or EC50 that approximates it; bounds were set here for any values at or beyond the usual limits of such assays
experimental.parameters: source organism: Yellow fever virus
reported.property: Kd

Please give the measured Kd for this sequence: `FHERGYVKL`
≥ 20 µM

----------
target.of.assay: HLA-A*11:01
method.notes: IEDB peptide-MHC binding, purified MHC/competitive/fluorescence; bounds were set here for any values at or beyond the usual limits of such assays
experimental.parameters: source organism: Variola virus
reported.property: IC50 (µM)
Give bare numbers, in µM.

Param readout= IC50; system= HLA-A*11:01; entry= `SKSMRDQRK` ; returns value.
21.1

----------
target.of.assay: HLA-A*02:03
method.notes: IEDB peptide-MHC binding, purified MHC/competitive/fluorescence; filed as Kd, often an IC50 or EC50 that approximates it; bounds were set here for any values at or beyond the usual limits of such assays
experimental.parameters: source organism: Entamoeba histolytica
reported.property: Kd

# lookup: Kd of `RASHFRKLF`
≥ 20 µM

----------
target.of.assay: HLA-A*68:02
method.notes: IEDB peptide-MHC binding, purified MHC/competitive/radioactivity; filed as Kd, often an IC50 or EC50 that approximates it; bounds were set here for any values at or beyond the usual limits of such assays
experimental.parameters: source organism: Dengue virus 1 Singapore/S275/1990
reported.property: pKd
One number for each entry, as −log10 of the molar value.

Give its pKd value. Item: `EVDSFSLGLL`
6.84

----------
target.of.assay: HLA-A*68:02
method.notes: IEDB peptide-MHC binding, purified MHC/direct/fluorescence; filed as Kd, often an IC50 or EC50 that approximates it; bounds were set here for any values at or beyond the usual limits of such assays
experimental.parameters: source organism: Orthohantavirus tulaense
reported.property: Kd

Need Kd, item `SLMSRVVYK`
≥ 20 µM

----------
target.of.assay: HLA-A*24:03
method.notes: IEDB peptide-MHC binding, purified MHC/direct/fluorescence; filed as Kd, often an IC50 or EC50 that approximates it; bounds were set here for any values at or beyond the usual limits of such assays
experimental.parameters: source organism: Salmonella enterica
reported.property: Kd

Which Kd is reported for this sequence? `WTDLYTSMS`
≥ 20 µM

----------
target.of.assay: HLA-A*30:02
method.notes: IEDB peptide-MHC binding, purified MHC/competitive/radioactivity; filed as Kd, often an IC50 or EC50 that approximates it; bounds were set here for any values at or beyond the usual limits of such assays
experimental.parameters: source organism: SARS coronavirus Tor2
pKd: −log10 of the molar value.
pKd below 7 gives F; pKd at or above it gives T.

# residues, target.of.assay, assigned.label
rows = [
    ("VFNNYMPYVF", "HLA-A*30:02", "F"),
    ("YYCKSHKPPI", "HLA-A*30:02", "F"),
    ("TSTGNYNYKY", "HLA-A*30:02", "T"),
    ("NAAISDYDYY", "HLA-A*30:02", "F"),
    ("YYPSARIVY", "HLA-A*30:02", "F"),
    ("IGAGICASY", "HLA-A*30:02", "T"),
]

hey, is pKd for this one >= 7? `KTSVDCNMY`
T

Tell me whether pKd is at least 7 here: `LFTKFFYLL`
F

Quick check: does `FFASFYYIW` have pKd greater than or equal to 7?
F
